These entries and their values trace back to ChEMBL document CHEMBL1130385.

target: Bifunctional dihydrofolate reductase-thymidylate synthase (Toxoplasma gondii); assay: Inhibitory concentration against Toxoplasma gondii Dihydrofolate reductase
Sequence (Q07422 whole entry): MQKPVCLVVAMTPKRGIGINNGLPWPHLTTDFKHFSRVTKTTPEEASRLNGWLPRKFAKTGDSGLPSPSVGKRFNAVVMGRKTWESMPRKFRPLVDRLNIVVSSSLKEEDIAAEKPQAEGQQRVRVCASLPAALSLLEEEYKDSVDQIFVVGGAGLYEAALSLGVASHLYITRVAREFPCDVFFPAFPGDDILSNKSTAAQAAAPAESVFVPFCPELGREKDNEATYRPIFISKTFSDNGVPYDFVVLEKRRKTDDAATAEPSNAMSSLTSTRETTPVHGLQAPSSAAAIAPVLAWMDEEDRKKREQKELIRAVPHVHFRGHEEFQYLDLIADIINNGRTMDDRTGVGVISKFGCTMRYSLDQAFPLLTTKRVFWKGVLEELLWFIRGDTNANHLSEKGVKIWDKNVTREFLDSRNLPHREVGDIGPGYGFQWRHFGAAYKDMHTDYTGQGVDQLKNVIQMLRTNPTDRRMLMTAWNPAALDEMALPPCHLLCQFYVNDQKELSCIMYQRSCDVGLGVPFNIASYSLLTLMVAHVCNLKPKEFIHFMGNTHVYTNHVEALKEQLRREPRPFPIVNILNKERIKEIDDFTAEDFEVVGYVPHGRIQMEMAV
Kindly state pIC50 for each of the entries shown.
// pIC50: -log10(molar conc.)

Record COc1cc(-n2ccc3c4c(N)nc(N)nc4nc(=O)c-3c2)cc(OC)c1OC . Reported pIC50: 6.28

Record COc1cc(N2CCC3c4c(N)nc(N)nc4NCC3C2)cc(OC)c1OC (centres undefined) . Reported pIC50: 6.54

Record COc1cc(N2C=Cc3c(cnc4nc(N)nc(N)c34)C2)cc(OC)c1OC . Reported pIC50: 6.12

Record COc1cc(N2C=C3C(=O)N=c4nc(N)nc(N)c4=C3CC2)cc(OC)c1OC . Reported pIC50: 5.95
